B1: LINE1-full (parent)
chain: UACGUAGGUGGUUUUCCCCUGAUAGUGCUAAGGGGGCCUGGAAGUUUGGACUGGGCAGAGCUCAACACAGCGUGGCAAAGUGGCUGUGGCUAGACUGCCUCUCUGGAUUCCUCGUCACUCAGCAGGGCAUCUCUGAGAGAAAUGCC

Variants of: B1
Assay: self-cleavage, relative activity (ratio to wild type); higher = more cleavage; in vitro, sequencing; the parent is a self-cleaving ribozyme
measured-quantity: self-cleavage

Check out these entries, answers already filled in.
macromolecule-sequence	result
AACGUAGGUGGUUUUCCCCUGAUAGUGCUAAGGGGGCCUGGAAGUUUGGACUGGGCAGAGCUCAACACAGCGUGGCAAAGUGGCUGUGGCUAGACUGCCUCUCUGGAUUCCUCGUCACUCAGCAGGGCAUCUCUGAGAGAAAAGCC [U1A U143A]	1.04
UACGUAGGUGGUUUUCCCCUGAUAGUGCUAAGGGGGCCUGGAAGUUUAGACUGGGCAGAGCUCAACACAGCGAGGCAAAGUGGCUGUGGCUAGACUGCCUCUCUGGAUUCCUCGUCACUCAGCAGGGCAUCUCUGAGAGAAAUGCC [G48A U73A]	1.36
UACGUAGGUGGUUUUCCCCUGAUAGUGCUAAGGGGGCAUGGAAGUUUGGACUGGGCAGAGCUCAACACAGCGUGGCAAAGUGGCUGUGGCUAGACUGCCUCUCUGGAUCCCUCGUCACUCAGCAGGGCAUCUCUGAGAGAAAUGCC [C38A U109C]	1
UACGUAGGUGGAUUUCCCCUGAUAGUGCUAAGGGGGCCUGGAAGUUUGGACUGGGCAGAGCCCAACACAGCGUGGCAAAGUGGCUGUGGCUAGACUGCCUCUCUGGAUUCCUCGUCACUCAGCAGGGCAUCUCUGAGAGAAAUGCC [U12A U62C]	0.12
UACGUAGGUGGUUUUCCCCUGAUAGUGCUAAGGGGGCCUGGAAGUUUGGACUGGGCAAAGCUCAACACAGCGUGGCAAAGUGGCUGUGGCUAGACUGCCUCUCUGGAUUUCUCGUCACUCAGCAGGGCAUCUCUGAGAGAAAUGCC [G58A C110U]	0.05

Reported self-cleavage for UACGUAGGUGGUUUUCCCCUGAUAGUGCUAAGGGGGCCUGAAAGUUUGGACUGGGCAGAGCUCAACACAGCGUGGCAAAGUGGCUGUGGCUAGGCUGCCUCUCUGGAUUCCUCGUCACUCAGCAGGGCAUCUCUGAGAGAAAUGCC [G41A A94G] was 0.13

Input UACGUAGGUGGUUUUCCCCUGAUAGUGCUAAGGGGGCCUGGAAGUUUGGACUGGGCAGAGCUCAACACAGCGUGGCAAAGUGGCUAUGGCUAGACUGCCUCUCUGGAUUCCUCGUCACUCAGCGGGGCAUCUCUGAGAGAAAUGCC [G86A A124G] . Output self-cleavage: 0.02
